# reported protein stability index; entries follow
- measurement_protocol: protein stability index of a GFP-peptide fusion (yeast GPS) (PSI 1-4); higher = more stable; sorted into four equal gates, so the index is relative within each strain
- condition_notes: ubr1∆
Kindly provide the number alone.

>>> readout_number("VINKLDRLILDLKLPPM [SNU114]")
2.14
>>> readout_number("AFYQKGNKLVELMRIIS [SMC1]")
1.38
>>> readout_number("ISSRTFGQRAVLKFAAH [RPS0A]")
2.49
>>> readout_number("VSFNGFKLPKKFPPPTP [BRR2]")
2.93
>>> readout_number("SKRGNDKKHFNNKNKRV [RPC53]")
2.05
>>> readout_number("KRNSDKVEYKIVHDDPA [ITC1]")
1.27

IN: # get_value(readout='protein stability index', item= NENDKIYLLFQSSGKLK [YDL116W/NUP84] )
OUT: 2.72

----------
- measurement_protocol: protein stability index of a GFP-peptide fusion (yeast GPS) (PSI 1-4); higher = more stable; sorted into four equal gates, so the index is relative within each strain
- condition_notes: doa10∆
Label rule, in plain words: protein stability index of 3 and up is Criterion met, under 3 is Criterion not met.

Some solved entries appear below for comparison.
>>> discrete_label("PMDAYLKLNHIIANINS [SNU114]")
"Criterion not met"
>>> discrete_label("NNNNTIDESMPDTAIDS [GRR1]")
"Criterion not met"
>>> discrete_label("ESGEDEAEFSLRELSCC [RRP46]")
"Criterion met"

Now examine the next entry.
IN: Reported protein stability index reaches at least 3 for FMDEIDSIGSTRVEGSG [RPT6] ?
OUT: Criterion not met

----------
- measurement_protocol: protein stability index of a GFP-peptide fusion (yeast GPS) (PSI 1-4); higher = more stable; sorted into four equal gates, so the index is relative within each strain
- condition_notes: san1∆
# reported protein stability index; entries follow
Kindly provide the number alone.

Example sequences with recorded protein stability index:
>>> readout_number("TNQKDTNDHVDKRTKID [ISW2]")
2.81
>>> readout_number("NVTKSSVGVIINKMVGN [RPL21A]")
2.46

IN: # get_value(readout='protein stability index', item= LHLAVGKKWFEVSQFLI [NAS6] )
OUT: 1.63

IN: And the next one, DPNEVKYLYLRAVGGEV [RPL12A] ?
OUT: 1.98

IN: And the next one, RRFKNGFQTGSAKATSA [RPL37B] ?
OUT: 3.39

IN: And the next one, AMHYSSNIELAFSSVEH [COB] ?
OUT: 1.91

----------
# reported protein stability index; entries follow
- measurement_protocol: protein stability index of a GFP-peptide fusion (yeast GPS) (PSI 1-4); higher = more stable; sorted into four equal gates, so the index is relative within each strain
- condition_notes: ubr1∆
Kindly provide the number alone.

>>> readout_number("EHIKQDYVASLNELYQT [NSL1]")
2.88
>>> readout_number("ILQILNLMILNTKVPVD [YML103C/NUP188]")
1.34
>>> readout_number("QQVPPLPDELTLSYDDI [DLS1]")
2.74
>>> readout_number("FSFGGTQTGQNTGPSTG [YGL172W/NUP49]")
3.1

IN: # get_value(readout='protein stability index', item= DRREKAERTMSKKETKL [SMC2] )
OUT: 3.39

IN: And the next one, LALPVFHIGYFKATIQI [RPO31] ?
OUT: 1.58

IN: And the next one, HNLHPQIGQVPLAPAPI [SNF5] ?
OUT: 2.76

----------
- measurement_protocol: protein stability index of a GFP-peptide fusion (yeast GPS) (PSI 1-4); higher = more stable; sorted into four equal gates, so the index is relative within each strain
- condition_notes: pdr5∆
observed_property: protein stability index
Kindly provide the number alone.

Example sequences with recorded protein stability index:
>>> readout_number("ESFESYHNLTTHNSYEK [RPN6]")
3.17
>>> readout_number("NPVALEQKLVDLLKFEN [BRR2]")
3.23
>>> readout_number("NIEERKEKIQHELGINI [BRR2]")
3.34
>>> readout_number("KIADNISKDENEDQFLE [YDL116W/NUP84]")
2.98
>>> readout_number("GYENGMLAQWDLRSPEC [RPN14]")
3.6
>>> readout_number("NKQYHQANSNLTLLERK [NUT1]")
2.77
>>> readout_number("NELPDIEALYDDDTFSD [RPN2]")
3.35
>>> readout_number("MSVEPVVVIDGKGHLVG [RPL16A]")
3.42
>>> readout_number("ALIKFMEYHISNTDETK [FAS2]")
2.5
>>> readout_number("IEGMEQRIIKELSIRFP [ARP7]")
3.21

IN: # get_value(readout='protein stability index', item= NQKLALVIKSGKYTLGY [RPL30] )
OUT: 2.87

----------
# reported protein stability index; entries follow
- measurement_protocol: protein stability index of a GFP-peptide fusion (yeast GPS) (PSI 1-4); higher = more stable; sorted into four equal gates, so the index is relative within each strain
- condition_notes: doa10∆
Kindly provide the number alone.

Example sequences with recorded protein stability index:
>>> readout_number("KLNVDQFISSRQFEVKQ [POP1]")
2.99
>>> readout_number("QELAKSIRSRRPYQVNV [PRE1]")
2.92
>>> readout_number("PSTAIHTSPHQPSDVKP [SIR4]")
2.81
>>> readout_number("LLIADSRRPEPKKFGGK [RPS16A]")
3
>>> readout_number("LVPPPRTIANQDHFHRL [RPR2]")
3.01
>>> readout_number("TTKMWPTNCPLRQFKTC [BRR2]")
2.41
>>> readout_number("KKEKLKQENSTLLKKAN [RPC82]")
2.3
>>> readout_number("SVDICNNSKSRYPMNLL [ECM29]")
1.86
>>> readout_number("PDLPALEASYSKSYTPR [SMC4]")
2.28
>>> readout_number("IMRILKSNGLAPEIPED [RPS13]")
2.14

IN: # get_value(readout='protein stability index', item= ELNDLKWGRNQPVNINL [YMR129W/POM152] )
OUT: 2.8

IN: And the next one, AEFKKRKIEAETRNGKV [YCS4] ?
OUT: 2.82

IN: And the next one, REIHNEAESQLRAAQQQ [FAS2] ?
OUT: 2.91

IN: And the next one, SSRLEFVKGISRDIKAL [YML103C/NUP188] ?
OUT: 2.39

IN: And the next one, PREDKENNRLLFECRTC [RPB9] ?
OUT: 3.29

IN: And the next one, RQGRSNRRGMLALSGTS [SNF5] ?
OUT: 2.89

----------
# reported protein stability index; entries follow
- measurement_protocol: protein stability index of a GFP-peptide fusion (yeast GPS) (PSI 1-4); higher = more stable; sorted into four equal gates, so the index is relative within each strain
- condition_notes: pdr5∆
Kindly provide the number alone.

Example sequences with recorded protein stability index:
>>> readout_number("GKETIARVTGGMKVKAD [RPS14B]")
1.24
>>> readout_number("PKVPEDIYKSHLDNSKS [RPN1]")
2.98
>>> readout_number("SGNGSNPNTNTNSNNTP [PGD1]")
3
>>> readout_number("FSEVYEYNRLKVQDAIE [LIN1]")
2.17
>>> readout_number("VVESVGAEVDEARINEL [RPP2B]")
3.21

IN: # get_value(readout='protein stability index', item= ESNNKKYPIFTGESWVK [YDL088C/ASM4] )
OUT: 2.59

IN: And the next one, AQFVSNKQYHQANSNLT [NUT1] ?
OUT: 3.21

IN: And the next one, RFNAKVSMVKRAIDSLI [CDC53] ?
OUT: 2.12

IN: And the next one, EECGRTIHRSFTICLND [CSN12] ?
OUT: 2.87

IN: And the next one, LRRSGQIANDPSKKRRR [SMD1] ?
OUT: 3.01

IN: And the next one, KRPPEIMSTEAHVNKVT [SIR4] ?
OUT: 2.96

IN: And the next one, RFKMERAGVTHVLSRLS [RET1] ?
OUT: 1.55

IN: And the next one, IEQLFPVRPVRVRHEDV [RPC53] ?
OUT: 2.97

IN: And the next one, RVLEIQTSLVRMFEKNV [SKI6] ?
OUT: 3.07

----------
# reported protein stability index; entries follow
- measurement_protocol: protein stability index of a GFP-peptide fusion (yeast GPS) (PSI 1-4); higher = more stable; sorted into four equal gates, so the index is relative within each strain
- condition_notes: pdr5∆
Kindly provide the number alone.

>>> readout_number("TPDATKIKAILESVGIE [RPP2A]")
3.2
>>> readout_number("NPDDDYGFKQEIFDVTS [FAS1]")
3.45
>>> readout_number("ELNDLKWGRNQPVNINL [YMR129W/POM152]")
2.72
>>> readout_number("KSLGGGAALKDIEIVRV [FAS2]")
3.39
>>> readout_number("MVMREETIKSLEDPYKY [CSN9]")
1.66

IN: # get_value(readout='protein stability index', item= HPQDFGNPGRIRVLFKE [SEC65] )
OUT: 2.94

IN: And the next one, NVLNQINQIFSPEEQRS [GAL11] ?
OUT: 2.93
